Test system: HEK-293T
method: Incucyte cell viability with HEK293T; further: unitless GR value; below 1 slowed growth and below 0 cell loss
Assay type: toxicity, cell-based
details: human, 24 h, 10 µM, compound concentration 10 uM, replicate number 1
Provide the reported Growth Rate of each item.
Answers are plain numbers.

1. Cc1cn([C@H](C)CC#N)c(=O)c2cc(Cn3nc(C(F)F)cc3Cl)nn12 = 0.97
2. Cc1c(NC(=O)c2ccc(C(C)(C)C)cc2)cccc1-c1cn(C)c(=O)c(Nc2ccc(C(=O)N3CCOCC3)cc2)n1 = 0.63
3. NC(=O)OC[C@H](NC(=O)Cn1nc(-c2ccc(Cl)cc2)n(C[C@H](O)C(F)(F)F)c1=O)c1cccc(C(F)(F)F)c1 = 0.71
4. Cc1ccc2c(NS(=O)(=O)c3ccccc3Cl)cccc2c1Oc1ncccc1-c1ccnc(N[C@H]2CCCNC2)n1.Cl = 0.48
5. Cc1cc(Cn2c(N3CC4(CNC4)C3)nc3c(N4CCN(C)CC4)cc(Cl)cc32)cc(C)c1F = -0.51

Go through the items and report each one's Growth Rate.
1. COc1ccc(S(=O)(=O)N2CCOCC2)cc1Nc1ccc2c(n1)N(C1CCN(C)CC1)[C@H](C)C(=O)N2C
2. CNCc1ccc(-c2cc(-c3nc(-c4ccc(S(=O)(=O)C(C)C)cc4)cnc3N)on2)cc1
3. Nc1ncc2c(n1)-c1c([nH]c3ccc(C4=CCOCC4)cc13)CCC2

Output line:
0.66
-0.24
0.37
